Experiment: in vivo
Parameters: species or system Sprague–Dawley rats
Conditions: male, Sprague-Dawley, rat, inhaled or intranasal, 10 mg/kg, AUC(inf)
Where a name gives a salt, the structure may show the parent alone.
recordedEndpoint: AUC(0-inf)
Number first, unit second: that is the form wanted.

Reported AUC(0-inf) of N=C(N)c1ccc2cc(OC(=O)c3ccc(N=C(N)N)cc3)ccc2c1 [NFM, Nafamostat mesylate] : 11200 ng·h/mL

###

Assay: in vivo
Design: species or system Sprague–Dawley rats
Details: male, Sprague-Dawley, rat, iv, 10 mg/kg, AUC(inf)
Counter-ions that a name gives are not always drawn.
recordedEndpoint: AUC(0-inf) (ng·h/mL)
Dear colleague, please return just the value in ng·h/mL, with no unit written.

Reported AUC(0-inf) of N=C(N)c1ccc2cc(OC(=O)c3ccc(N=C(N)N)cc3)ccc2c1 [NFM, Nafamostat mesylate] : 7270
